Recorded measurements of Ki, one per entry
- target_or_system: purified catalytic domain of recombinant human TACE (rhTACEc) (Homo sapiens, UniProt P78536, N452Q/S266A)
- Construct: rhTACEc, Residue 215 to 477 with two mutation (S266A and N4520) and a 6×His tail; 6xHis (C); made in house; host or cells: baculovirus/Hi5 insect cells
- Sequence (P78536 215-477 S266A/N452Q limits assumed): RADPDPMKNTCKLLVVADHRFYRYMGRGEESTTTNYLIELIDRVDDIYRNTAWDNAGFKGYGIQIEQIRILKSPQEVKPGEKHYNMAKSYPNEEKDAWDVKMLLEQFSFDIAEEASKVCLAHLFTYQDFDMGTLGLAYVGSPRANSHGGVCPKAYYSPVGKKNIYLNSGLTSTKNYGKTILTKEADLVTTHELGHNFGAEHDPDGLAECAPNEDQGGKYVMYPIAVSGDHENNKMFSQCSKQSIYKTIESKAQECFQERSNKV
- method: TACE kinetic assay, cleavage of internally quenched fluorescent peptide substrate SPDL-3
- Assay type: biochemical
- measurement_setup: TACE inhibition, Table 1001; read-out: Ki Rating

A selection of reference data follows.
>  <molecule>
COc1ccc2c(c1)C(=O)N(C[C@@]1(C#Cc3cnc4c(ccn4C)c3)NC(=O)NC1=O)C2

>  <Ki>
< 5 nM

$$$$
>  <molecule>
COc1ccc2c(c1)C(=O)N(CC1(C#Cc3cccnc3)NC(=O)NC1=O)C2 (stereo not drawn)

>  <Ki>
< 5 nM

$$$$
>  <molecule>
COc1ccc2c(c1)C(=O)N(C[C@@]1(C#Cc3ccccc3C(C)C)NC(=O)NC1=O)C2

>  <Ki>
< 5 nM

$$$$
>  <molecule>
COc1ccc2c(c1)C(=O)N(C[C@@]1(C#Cc3cncnc3)NC(=O)NC1=O)C2

>  <Ki>
< 5 nM

$$$$
>  <molecule>
COc1ccc2c(c1)C(=O)N(C[C@@]1(C#Cc3cncc4ccc(C(=O)O)nc34)NC(=O)NC1=O)C2

>  <Ki>
< 5 nM

$$$$

The molecule listed as COc1ccc2c(c1)C(=O)N(C[C@@]1(C#Cc3cccc(F)c3)NC(=O)NC1=O)C2 shows Ki equal to < 5 nM

The molecule listed as COc1ccc2c(c1)C(=O)N(C[C@@]1(C#Cc3ccc(OC(F)F)cc3)NC(=O)NC1=O)C2 shows Ki equal to < 5 nM

The molecule listed as COc1ccc2c(c1)C(=O)N(CC1(C#Cc3ccc(F)cc3)NC(=O)NC1=O)C2 (stereo not drawn) shows Ki equal to < 5 nM

The molecule listed as COc1ccc2c(c1)C(=O)N(C[C@@]1(C#Cc3cncc(-c4cnn(C)c4)c3)NC(=O)NC1=O)C2 [Compound 409C] shows Ki equal to < 5 nM

The molecule listed as COc1ccc2c(c1)C(=O)N(C[C@@]1(C#Cc3cc(O)c(F)c(F)c3)NC(=O)NC1=O)C2 shows Ki equal to < 5 nM

The molecule listed as COc1ccc2c(c1)C(=O)N(C[C@@]1(C#Cc3cc(F)cc(C#N)c3)NC(=O)NC1=O)C2 shows Ki equal to < 5 nM

The molecule listed as COc1ccc2c(c1)C(=O)N(C[C@@]1(C#Cc3cn(C)c(C)n3)NC(=O)NC1=O)C2 shows Ki equal to < 5 nM

The molecule listed as COc1ccc2c(c1)C(=O)N(C[C@@]1(C#Cc3cc(C(F)(F)F)cc(C(F)(F)F)c3)NC(=O)NC1=O)C2 shows Ki equal to < 5 nM

The molecule listed as COc1ccc2c(c1)C(=O)N(C[C@@]1(C#Cc3cc(C)cc(F)c3)NC(=O)NC1=O)C2 shows Ki equal to < 5 nM

The molecule listed as COc1ccc2c(c1)C(=O)N(C[C@@]1(C#Cc3cccc4cnccc34)NC(=O)NC1=O)C2 shows Ki equal to < 5 nM

====

Recorded measurements of pKi, one per entry
- target_or_system: purified catalytic domain of recombinant human TACE (rhTACEc) (Homo sapiens, UniProt P78536, N452Q/S266A)
- Construct: rhTACEc, Residue 215 to 477 with two mutation (S266A and N4520) and a 6×His tail; 6xHis (C); made in house; host or cells: baculovirus/Hi5 insect cells
- method: TACE kinetic assay, cleavage of internally quenched fluorescent peptide substrate SPDL-3
- Assay type: biochemical
- measurement_setup: TACE; class letters A-D; read-out: Ki Rating
pKi: −log10 of the molar value.

A selection of reference data follows.
>  <molecule>
COc1ccc2c(c1)C(=O)N(C[C@@]1(C#Cc3ccc(S(=O)(=O)C(F)(F)F)cc3)NC(=O)NC1=O)C2 [Compound 1039]

>  <pKi>
7.60 to 8.30

$$$$
>  <molecule>
COc1ccc2c(c1)C(=O)N(C[C@@]1(C#Cc3cnccc3OC)NC(=O)NC1=O)C2 [Compound 1579]

>  <pKi>
> 8.30

$$$$
>  <molecule>
COc1ccc2c(c1)C(=O)N(C[C@@]1(C#Cc3ccc(-c4nnc(C)o4)nc3)NC(=O)NC1=O)C2 [Compound 1500]

>  <pKi>
> 8.30

$$$$

API: the following record is the query input.
The molecule listed as COc1ccc2c(c1)C(=O)N(C[C@@]1(C#Cc3cnc(O)nc3N)NC(=O)NC1=O)C2 [Compound 1567] shows pKi equal to > 8.30

====

- target_or_system: purified catalytic domain of recombinant human TACE (rhTACEc) (Homo sapiens, UniProt P78536, N452Q/S266A)
- Construct: rhTACEc, Residue 215 to 477 with two mutation (S266A and N4520) and a 6×His tail; 6xHis (C); made in house; host or cells: baculovirus/Hi5 insect cells
- method: TACE kinetic assay, cleavage of internally quenched fluorescent peptide substrate SPDL-3
- Assay type: biochemical
- measurement_setup: rhTACEc 70 pM, 30 μM SPDL-3, 90 min pre-incubation at 25° C.; read-out: Ki (nM), TACE inhibitory activity
parameter_measured: Ki (nM)

>  <molecule>
COc1ccc2c(c1)C(=O)N(C[C@@]1(C#Cc3ccc(F)cc3F)NC(=O)NC1=O)C2

>  <Ki / nM>
0.23

$$$$
>  <molecule>
COc1ccc2c(c1)C(=O)N(C[C@@]1(C#Cc3ccc(C(C)=NO)s3)NC(=O)NC1=O)C2

>  <Ki / nM>
0.3

$$$$

1: COc1ccc2c(c1)C(=O)N(C[C@@]1(C#Cc3cccc4[nH]ccc34)NC(=O)NC1=O)C2
2: COc1ccc2c(c1)C(=O)N(C[C@@]1(C#Cc3cccnc3C)NC(=O)NC1=O)C2
3: COc1ccc2c(c1)C(=O)N(C[C@@]1(C#Cc3ccc(C)nc3)NC(=O)NC1=O)C2
Could you please sort these 3 entries by Ki from high to low? Note for the reader: the ranking is given by listing the labels in the order requested.
1, 3, 2

I: COc1ccc2c(c1)C(=O)N(C[C@@]1(C#Cc3cccc4cnccc34)NC(=O)NC1=O)C2
II: COc1ccc2c(c1)C(=O)N(C[C@@]1(C#Cc3ccc(C4(C)NC(=O)NC4=O)cc3)NC(=O)NC1=O)C2 (stereo partly shown)
Pick the one with the larger Ki: I vs II I would appreciate it if you answered with the label of your choice.
I
(I: 0.11 nM, II: 0.03 nM)

====

- target_or_system: purified catalytic domain of recombinant human TACE (rhTACEc) (Homo sapiens, UniProt P78536, N452Q/S266A)
- Construct: rhTACEc, Residue 215 to 477 with two mutation (S266A and N4520) and a 6×His tail; 6xHis (C); made in house; host or cells: baculovirus/Hi5 insect cells
- method: TACE kinetic assay, cleavage of internally quenched fluorescent peptide substrate SPDL-3
- Type: biochemical
- measurement_setup: TACE inhibition, Table 1001; read-out: Ki Rating
pKi: −log10 of the molar value.
parameter_measured: pKi

>  <compound>
COc1ccc2c(c1)C(=O)N(C[C@@]1(C#Cc3cncc(-n4cccn4)c3)NC(=O)NC1=O)C2 [Compound 482B]

>  <recorded_measurement>
> 8.30

$$$$

The compound listed as CNc1nc2cc(C#C[C@]3(CN4Cc5ccc(OC)cc5C4=O)NC(=O)NC3=O)ccc2s1 [Compound 508] shows pKi equal to > 8.30

The compound listed as COc1ccc2c(c1)C(=O)N(C[C@@]1(C#Cc3cccc(Cl)c3F)NC(=O)NC1=O)C2 [Compound 488] shows pKi equal to > 8.30

The compound listed as COc1ccc2c(c1)C(=O)N(C[C@@]1(C#Cc3c(C)n[nH]c3C)NC(=O)NC1=O)C2 [Compound 911] shows pKi equal to > 8.30

====

Recorded measurements of Ki, one per entry
- target_or_system: purified catalytic domain of recombinant human TACE (rhTACEc) (Homo sapiens, UniProt P78536, N452Q/S266A)
- Construct: rhTACEc, Residue 215 to 477 with two mutation (S266A and N4520) and a 6×His tail; 6xHis (C); made in house; host or cells: baculovirus/Hi5 insect cells
- method: TACE kinetic assay, cleavage of internally quenched fluorescent peptide substrate SPDL-3
- Type: biochemical
- measurement_setup: TACE; class letters A-D; read-out: Ki Rating

>  <molecule>
COc1ccc2c(c1)C(=O)N(C[C@@]1(C#Cc3ccc(-c4nnc(N)o4)nc3)NC(=O)NC1=O)C2 [Compound 1501]

>  <Ki>
< 5 nM

$$$$

The molecule listed as COc1ccc2c(c1)C(=O)N(C[C@@]1(C#Cc3ccc(C4(C)NC(=O)N(C)C4=O)cc3)NC(=O)NC1=O)C2 (stereo partly shown) [Compound 1555] shows Ki equal to < 5 nM

The molecule listed as COc1ccc2c(c1)C(=O)N(C[C@@]1(C#Cc3ccc(C(=O)NC4CC4)cc3)NC(=O)NC1=O)C2 [Compound 1065] shows Ki equal to < 5 nM

The molecule listed as COc1ccc2c(c1)C(=O)N(C[C@@]1(C#Cc3cnccc3C(N)=O)NC(=O)NC1=O)C2 [Compound 1515] shows Ki equal to < 5 nM

The molecule listed as COCc1cccc(C#C[C@]2(CN3Cc4ccc(OC)cc4C3=O)NC(=O)NC2=O)c1 [Compound 1055] shows Ki equal to < 5 nM

The molecule listed as COc1ccc2c(c1)C(=O)N(C[C@]1(C#Cc3ccc(C#N)s3)NC(=O)NC1=O)C2 [Compound 1068] shows Ki equal to > 100 nM

The molecule listed as O=C1NC(=O)[C@](C#Cc2cccc(F)c2)(CN2Cc3ccc(F)cc3C2=O)N1 [Compound 1051] shows Ki equal to 25 to 100 nM
